All figures here come from patent US11702404B2.

Each entry below lists one item and its recorded Predicted Hepatic Clearance (Pred. Cl.) value.
Test: Microsomal stability, human liver microsomes (predicted hepatic clearance)
Conditions: predicted from in vitro microsomal stability data
Provide only the numeric value, understood in mL/min/kg.

Check out these entries, answers already filled in.
COCCn1c(Cc2ccc(-c3cccc(OCc4cccc5ccoc45)n3)cc2F)nc2ccc(C(=O)O)cc21 [Example 136] :: 9
N#Cc1ccc(COc2ccnc(-c3cc(F)c(Cc4nc5c(F)cc(C(=O)O)cc5n4C[C@@H]4CCO4)cc3F)n2)c(F)c1 [Example 778] :: 3.67
COC(Cn1c(Cc2cc(F)c(-c3cccc(OCc4ccc(C#N)cc4F)n3)cc2F)nc2ccc(C(=O)O)cc21)C(F)(F)F (centres unmarked) [Example 715] :: 2
COCCn1c(Cc2ccc(-n3ccc(OCc4ccccc4)n3)cc2F)nc2ccc(C(=O)O)cc21 [Example 89] :: 8.83
CO[C@H](C)Cn1c(Cc2cc(F)c(-c3cccc(OCc4ccc(C#N)cc4F)n3)cc2F)nc2ccc(C(=O)O)cc21 [Example 588] :: 6.5
N#Cc1ccc(COc2ccnc(-c3cc(F)c(Cc4nc5ccc(C(=O)O)cc5n4C[C@@H]4CCO4)cc3F)n2)c(F)c1 [Example 451] :: 4.83
N#Cc1ccc(COc2nc(-c3cc(F)c(Cc4nc5ccc(C(=O)O)cc5n4CCOC4CC4)cc3F)ccc2F)c(F)c1 [Example 900] :: 1.83
COCCn1c(Cc2ccc(-c3cccc(OCc4ccc(C#CC5CC5)cc4F)n3)cc2F)nc2ccc(C(=O)O)cc21 [Example 843] :: 2.67

The measured Predicted Hepatic Clearance (Pred. Cl.) associated with N#Cc1ccc(COc2cccc(-c3ccc(Cc4nc5c(F)cc(C(=O)O)cc5n4CC4(CF)CC4)cc3F)n2)c(F)c1 [Example 276] reads 6.42

The measured Predicted Hepatic Clearance (Pred. Cl.) associated with COCCn1c(Cc2ccc(-c3cccc(OCc4ccc(C#N)cc4F)n3)c(C(F)(F)F)c2)nc2ccc(C(=O)O)cc21 [Example 34] reads 9.83

The measured Predicted Hepatic Clearance (Pred. Cl.) associated with COCCn1c(Cc2cc(F)c(-c3cccc(OCc4ccc(F)cc4F)n3)cc2F)nc2ccc(C(=O)O)cc21 [Example 815] reads 1.83

The measured Predicted Hepatic Clearance (Pred. Cl.) associated with N#Cc1ccc(COc2cccc(-c3cc(F)c(Cc4nc5ccc(C(=O)O)cc5n4CCOCC(F)(F)F)cc3F)n2)c(F)c1 [Example 827] reads 7.17

The measured Predicted Hepatic Clearance (Pred. Cl.) associated with COCCn1c(Cc2ccc(-c3cccc(OCc4ccc5cn[nH]c5c4)n3)cc2F)nc2ccc(C(=O)O)cc21 [Example 463] reads 2.33
